The reported measurements were obtained from paper PMC11325084.

assay: Pharmacokinetics of LN002 in rat plasma after single intravenous injection or oral gavage; type: in vivo, Sprague–Dawley (SD) rats; conditions: both sexes, Sprague-Dawley, rat; plasma, oral single dose, across 100, 200 and 400 mg/kg, rats
READOUT_KIND: Tmax (h)

* N#C/C(=C\c1c[nH]nc1-c1ccccc1)c1nn(-c2ccccc2)c(N)c1C#N [LN002] | 1

====

test: Tissue distribution of LN002 after oral administration in rats; assay type: in vivo, Sprague–Dawley (SD) rats; conditions: both sexes, Sprague-Dawley, rat; intestine, oral 200 mg/kg, SD rats, n = 6, mean ± SD
READOUT_KIND: half-life (h)

• N#C/C(=C\c1c[nH]nc1-c1ccccc1)c1nn(-c2ccccc2)c(N)c1C#N = 5.48
